Biological target: Pantetheinase (Homo sapiens, UniProt O95497)
Sequence (O95497 whole entry): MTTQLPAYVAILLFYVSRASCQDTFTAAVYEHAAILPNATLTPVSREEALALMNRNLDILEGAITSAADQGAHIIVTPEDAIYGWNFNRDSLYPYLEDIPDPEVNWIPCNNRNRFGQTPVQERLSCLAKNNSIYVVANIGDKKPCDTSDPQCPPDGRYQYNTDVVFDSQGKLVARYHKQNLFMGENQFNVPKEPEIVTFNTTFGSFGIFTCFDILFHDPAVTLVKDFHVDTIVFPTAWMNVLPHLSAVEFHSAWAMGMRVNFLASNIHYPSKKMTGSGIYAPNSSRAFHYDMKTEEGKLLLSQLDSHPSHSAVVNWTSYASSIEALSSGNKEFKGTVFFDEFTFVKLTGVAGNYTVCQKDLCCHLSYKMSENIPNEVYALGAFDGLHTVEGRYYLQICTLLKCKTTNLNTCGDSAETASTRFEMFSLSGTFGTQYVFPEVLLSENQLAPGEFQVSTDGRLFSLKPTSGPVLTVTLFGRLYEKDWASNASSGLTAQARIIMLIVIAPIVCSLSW
Assay: Inhibition of human vanin-1 in whole blood
pIC50: −log10 of the molar value.
quantity: pIC50

CN(C(=O)[C@@H]1CCCO1)[C@H]1CCN(C(=O)c2ccc(NC(C)(C)C)nc2)C1 = 8.57
CCC(C)(C)Nc1ccc(C(=O)N2CC[C@H](N(C)C(C)=O)C2)cn1 = 8.51
CN(C(=O)C1CC(F)(F)C1)[C@H]1CCN(C(=O)c2ccc(NC(C)(C)C)nc2)C1 = 8.44
CC(C)(C)Nc1ccc(C(=O)N2CC[C@H](N3CCOC3=O)C2)cn1 = 8.40
CC(C)(C)Nc1ccc(C(=O)N2CC(C)(c3ccccn3)C2)cn1 = 8.57
CC(=O)N(C)[C@H]1CCN(C(=O)c2ccc(NC(C)(C)CCO)nc2)C1 = 8.80
